- Tested on: Mus musculus
- Test Details: Neurotoxicity in ip dosed Swiss albino mouse assessed as minimum drug concentration required for falling off the rotarod by half or more of mouse after 0.5 hrs by rotarod test
- Type: toxicity, organism-based
- Condition Details: in vivo
Can you tell me Activity for the items I'm about to list?
State the answer as a number, implicitly in mg/kg.

Lab book: Activity of C/C(=N\NC(=O)Nc1nc2c(ccc3ccccc32)s1)c1ccccc1 noted as 100

// Activity value for O=C(N/N=C/c1ccccc1)Nc1nc2c(ccc3ccccc32)s1 : 100

The recorded Activity for entry NC(=O)N1c2ccccc2C=Cc2ccccc21 [CARBAMAZEPINE] equals 100

Form: compound = O=C(N/N=C1\C(=O)Nc2ccccc21)Nc1nc2c(ccc3ccccc32)s1 ; Activity = 100

For record COc1ccc(OC)c(/C=N/NC(=O)Nc2nc3c(ccc4ccccc43)s2)c1 the listed Activity is 300

Data point: O=C(N/N=C/c1ccc(Cl)cc1)Nc1nc2c(ccc3ccccc32)s1 ; Activity = 100

The recorded Activity for COc1cc(/C=N/NC(=O)Nc2nc3c(ccc4ccccc43)s2)ccc1O is 300

Briefly, Activity measured for O=C(N/N=C/c1ccc(Br)cc1)Nc1nc2c(ccc3ccccc32)s1 : 100

Documented Activity of O=C(N/N=C/c1ccccc1Cl)Nc1nc2c(ccc3ccccc32)s1 : 300

Lab note: measured Activity of O=C(N/N=C/c1ccc(F)cc1)Nc1nc2c(ccc3ccccc32)s1 was 300

Consider CCC1(c2ccccc2)C(=O)NC(=O)NC1=O . Its measured Activity is 100

Query COc1cc(/C=N/NC(=O)Nc2nc3c(ccc4ccccc43)s2)cc(OC)c1OC yields Activity of 100

Reported Activity ( O=C(N/N=C/c1ccc([N+](=O)[O-])cc1)Nc1nc2c(ccc3ccccc32)s1 ) = 300

For O=C(N/N=C/c1ccccc1O)Nc1nc2c(ccc3ccccc32)s1 the compound record lists Activity as 100

So for O=C1NC(=O)C(c2ccccc2)(c2ccccc2)N1 , the logged Activity turned out to be 100

Lookup result for CN(C)c1ccc(/C=N/NC(=O)Nc2nc3c(ccc4ccccc43)s2)cc1 ; measured Activity: 300
